# procedure summary: basal S. cerevisiae growth modulation, no modifier, primary screen, OD600, strain BY4716, 24 h, basal condition (AID 1173)
# recorded conditions: OD600, 24 h, higher = more signal, called active from +8 up or from −8 down
Listed here are molecules together with their documented z-score.
test readout: z-score

[
  {
    "molecule": "COCCCNC(=O)[C@@]1(Cc2ccccc2CN=[N+]=[N-])COC(c2ccc(OCCCO)cc2)=N1",
    "reported result": -1.66
  },
  {
    "molecule": "COc1ccc(/C=C/C(=O)c2cccc(OCC(=O)OC(C)(C)C)c2)cc1",
    "reported result": -1.39
  },
  {
    "molecule": "C=CCC(OC(C)=O)[C@@H]1[C@@H](N(Cc2ccc(-c3ccccc3)cc2)C(=O)c2ccc(-c3ccccc3)cc2)c2cc(OCCCO)ccc2N1C(=O)c1ccc(-c2ccccc2)cc1 (some centres undefined)",
    "reported result": -0.435
  },
  {
    "molecule": "CC(C)C(CO)N1C(=O)[C@@H]2[C@H]3C(=O)OCC=C[C@H]3OC23C=CCN(Cc2ccccc2)C(=O)[C@@H]13 (some centres undefined)",
    "reported result": -1.57
  },
  {
    "molecule": "CO[C@H]1O[C@H](CO)[C@@H](OC(=O)CCc2ccccc2)[C@@H]2OC(=O)[C@H](Cc3ccccc3)C/C=C/C[C@@H](Cc3ccccc3)C(=O)O[C@@H]12",
    "reported result": -2.53
  },
  {
    "molecule": "COCCCN1C(=O)[C@@]2(Cc3ccccc31)c1ccccc1C(=O)N(Cc1ccccc1Cl)[C@H]2c1ccc(CO)cc1",
    "reported result": -0.846
  },
  {
    "molecule": "CC(C)[C@@H](C(=O)O)n1cc(-c2ccccn2)nn1",
    "reported result": -1.37
  },
  {
    "molecule": "COc1c(C)cc(-c2cc3c(c(CCc4ccccc4)n2)[Si](C(C)C)(C(C)C)OC3)cc1C",
    "reported result": -0.966
  },
  {
    "molecule": "COCCOC(=O)N1C(=O)[C@@]2(c3cc(C#CC4(O)CCCCCC4)ccc31)[C@H](c1ccccc1OCCO)N1[C@H](c3ccccc3)[C@H](c3ccccc3)OC(=O)[C@H]1[C@@H]2C(=O)Nc1nc2ccccc2s1",
    "reported result": 1.15
  }
]

----------
# procedure summary: IGROV1 ovarian cancer cell cytotoxicity, dose response, PAX8 inhibitor project, plate reader, dry powder samples (AID 743043);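 also: more negative means fewer viable cells or more cytotoxicity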
# recorded conditions: series mostly up to 35 µM
Potency and affinity values are given separately. Results filed as inconclusive are left out. Active and inactive are the calls of the source. No rule for the calls is given here.

[
  {
    "sample smiles": "C[C@H](CO)N1C[C@H](C)[C@@H](CN(C)S(=O)(=O)c2ccc(Cl)cc2)OCCCC[C@H](C)Oc2ccc(NS(=O)(=O)c3ccc(F)cc3)cc2C1=O",
    "outcome": "inactive"
  },
  {
    "sample smiles": "COc1ccc(S(=O)(=O)Nc2ccc3c(c2)C(=O)N([C@@H](C)CO)C[C@H](C)[C@@H](CN(C)Cc2ccc(C(F)(F)F)cc2)OCCCC[C@@H](C)O3)cc1",
    "outcome": "inactive"
  },
  {
    "sample smiles": "Cc1cccc(S(=O)(=O)N2CC[C@@H]3[C@H](CO)Nc4ccc(C5=CCCCC5)cc4[C@@H]32)c1",
    "outcome": "inactive"
  },
  {
    "sample smiles": "COc1cccc(S(=O)(=O)N(C)C[C@H]2OCc3ccccc3-c3c(n(C)c4ccccc34)C(=O)N([C@H](C)CO)C[C@H]2C)c1",
    "outcome": "inactive"
  },
  {
    "sample smiles": "COCC(=O)N1[C@H](CO)[C@H](c2ccc(-c3cccnc3)cc2)[C@@H]1C#N",
    "outcome": "inactive"
  },
  {
    "sample smiles": "O=C(C[C@@H]1C[C@@H]2c3cc(NS(=O)(=O)c4ccc(F)cc4)ccc3O[C@@H]2[C@@H](CO)O1)NCc1ccc(Oc2ccccc2)cc1",
    "outcome": "inactive"
  },
  {
    "sample smiles": "O=C(C[C@@H]1C[C@H]2c3cc(NC(=O)Nc4ccc(C(F)(F)F)cc4)ccc3O[C@H]2[C@H](CO)O1)NCc1ccc(Cl)cc1",
    "outcome": "inactive"
  }
]

Reference source for all entries: PubChem BioAssay
